TESTED TARGET: PTK2 (Homo sapiens)
Construct: purchased Invitrogen PV3832
Sequence (Q05397 whole entry): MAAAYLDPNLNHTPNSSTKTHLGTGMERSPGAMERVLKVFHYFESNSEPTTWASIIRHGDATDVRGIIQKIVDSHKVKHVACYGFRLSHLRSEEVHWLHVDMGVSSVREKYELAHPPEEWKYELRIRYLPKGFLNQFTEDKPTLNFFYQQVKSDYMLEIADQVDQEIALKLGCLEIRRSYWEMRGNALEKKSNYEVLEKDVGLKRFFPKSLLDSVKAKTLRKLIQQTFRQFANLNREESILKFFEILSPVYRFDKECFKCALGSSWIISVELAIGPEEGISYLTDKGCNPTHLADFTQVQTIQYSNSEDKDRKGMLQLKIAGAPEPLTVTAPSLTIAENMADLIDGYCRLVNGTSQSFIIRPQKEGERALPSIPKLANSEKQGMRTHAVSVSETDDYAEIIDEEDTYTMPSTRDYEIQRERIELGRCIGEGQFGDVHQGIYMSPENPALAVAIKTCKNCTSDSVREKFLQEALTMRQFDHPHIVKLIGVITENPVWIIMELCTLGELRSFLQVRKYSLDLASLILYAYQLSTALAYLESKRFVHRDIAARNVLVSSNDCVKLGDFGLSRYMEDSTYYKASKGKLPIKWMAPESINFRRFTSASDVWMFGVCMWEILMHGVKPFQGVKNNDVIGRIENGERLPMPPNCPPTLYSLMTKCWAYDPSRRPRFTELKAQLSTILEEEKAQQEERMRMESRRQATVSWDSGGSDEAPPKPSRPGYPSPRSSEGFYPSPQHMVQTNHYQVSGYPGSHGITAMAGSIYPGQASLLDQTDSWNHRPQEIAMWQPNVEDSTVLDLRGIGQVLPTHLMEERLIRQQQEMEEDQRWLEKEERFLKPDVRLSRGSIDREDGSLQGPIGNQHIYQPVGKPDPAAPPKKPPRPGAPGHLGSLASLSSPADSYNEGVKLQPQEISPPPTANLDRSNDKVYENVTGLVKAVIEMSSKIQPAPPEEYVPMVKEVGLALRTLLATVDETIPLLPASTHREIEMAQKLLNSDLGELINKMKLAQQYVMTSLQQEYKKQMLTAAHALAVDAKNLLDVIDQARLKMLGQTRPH
PROTOCOL: PTK2 enzyme test Assay 1 (DELFIA, poly-Glu-Tyr substrate, PT60 antibody)
Format: biochemical
DETAILS: Assay 1 (values without *); 1 h pre-incubation, 50 μM ATP mix, final DMSO 2%
pIC50: −log10 of the molar value.
PARAMETER: pIC50

1) COCCNC(=O)c1ccc(Nc2ncc(C(F)(F)F)c(N[C@@H]3Cc4ccccc4[C@H]3NC(C)=O)n2)c(OC)c1 [Example I-16] ... 8.70
2) COc1cc(CN2CCOCC2)ccc1Nc1ncc(C(F)(F)F)c(N[C@@H]2Cc3ccccc3[C@H]2NC(C)=O)n1 [Example I-38] ... 8.70
3) COc1cc(N2CCN(C)CC2)ccc1Nc1ncc(C(F)(F)F)c(N[C@@H]2Cc3ccccc3[C@H]2NC(C)=O)n1 [Example I-26] ... 8.70
4) CNCc1ccc(Nc2ncc(C(F)(F)F)c(N[C@@H]3Cc4ccccc4[C@H]3NS(C)(=O)=O)n2)c(OC)c1 [Example I-9] ... 8.70
5) COc1cc(Nc2ncc(C(F)(F)F)c(N[C@@H]3Cc4ccccc4[C@H]3N(C)S(C)(=O)=O)n2)ccc1C(=O)NC1CCN(C)CC1 [Example I-64] ... 9.12

1: COc1cc(NC(C)=O)ccc1Nc1ncc(C(F)(F)F)c(N[C@@H]2Cc3ccccc3[C@H]2N(C)S(C)(=O)=O)n1 [Example I-90]
2: COCCN1CCC(NC(=O)c2ccc(Nc3ncc(C(F)(F)F)c(N[C@@H]4Cc5ccccc5[C@H]4N(C)S(C)(=O)=O)n3)c(OC)c2)CC1 [Example I-65]
3: COc1cc(C(=O)NC2CCOCC2)c(F)cc1Nc1ncc(C(F)(F)F)c(N[C@@H]2Cc3ccccc3[C@H]2N(C)S(C)(=O)=O)n1 [Example I-50]
[Q] Order the 3 molecules from highest to lowest pIC50. Could you list the labels in the order requested?
[A] 2, 1, 3
(2: 9.00, 1: 8.52, 3: 8.10)

1: COCCN1CCN(c2ccc(Nc3ncc(C(F)(F)F)c(N[C@@H]4Cc5ccccc5[C@H]4N(C)S(C)(=O)=O)n3)c(OC)c2)CC1 [Example I-84]
2: CONC(=O)c1ccc(Nc2ncc(C(F)(F)F)c(N[C@@H]3Cc4ccccc4[C@H]3NC(C)=O)n2)c(OC)c1 [Example I-17]
[Q] Of 1 and 2 , which shows the smaller pIC50 value? Returns: label corresponding to the selected item.
[A] 2
(2: 8.70, 1: 9.00)
